- methodNotes: neurotoxicity, positional sense test and gait and stance test, rats (p.o.)
- Format: in vivo, rat
- experimentalParameters: rat, po, read-out: TD50 (median neurological toxic dose)
quantityName: TD50

Short answer for "CC1(C)C(C(=O)NCC(N)=O)C1(C)C" : TD50 was > 500 mg/kg

---

- Tested on: subcutaneous pentylenetetrazol (Metrazol) seizure threshold
- methodNotes: subcutaneous pentylenetetrazol (Metrazol) seizure threshold (s.c. Met) test, rats
- experimentalParameters: Rattus norvegicus, sc, read-out: scMet ED50
- Experimental: All compounds described before were screened for their ability to protect against seizures in two different models of epilepsy: the maximal electroshock seizure (MES) model; and the subcutaneous pentylenetetrazol (Metrazol) seizure threshold (s.c.Met) test. […] The PI value, the protective index, is calculated as described below. […]
Provide the reported ED50 of each item.
Report the value in mg/kg with no unit label.

Reported subcutaneous pentylenetetrazol (Metrazol) seizure threshold ED50 for item CCCC(CCC)C(=O)O [Valproic Acid, reference compound] was 180

Reported subcutaneous pentylenetetrazol (Metrazol) seizure threshold ED50 for item CNC(=O)C1C(C)(C)C1(C)C [Compound 1] was 45

Reported subcutaneous pentylenetetrazol (Metrazol) seizure threshold ED50 for item CC1(C)C(C(N)=O)C1(C)C [Compound 3] was 52

Reported subcutaneous pentylenetetrazol (Metrazol) seizure threshold ED50 for item CCC1(C)CC(=O)NC1=O (centres unmarked) [ETS, Ethosuximide, reference compound] was 54

---

- methodNotes: neurotoxicity, rotorod ataxia test, mice (i.p.)
- Assay type: in vivo, mouse
- experimentalParameters: mouse, ip, read-out: TD50 (median neurological toxic dose)
quantityName: TD50
Be sure to follow the number with its unit.

Short answer for CNC(=O)C1C(C)(C)C1(C)C [Compound 1] : TD50 was 83 mg/kg
